# Tested on: Burkholderia cepacia
# experiment description: Antimicrobial activity against Burkholderia cepacia complex isolated from cystic fibrosis patient by broth microdilution assay
# Type: functional
# strict inequality: MIC50 < 30 µg/mL yields Criterion met, everything else yields Criterion not met

Challenge: hey, is MIC50 for C[C@H]1c2cccc(O)c2C(=O)C2=C(O)[C@]3(O)C(=O)C(C(N)=O)=C(O)[C@@H](N(C)C)[C@@H]3[C@@H](O)[C@@H]21.O [DOXYCYCLINE] lower than 30 µg/mL or not?
Response given: Criterion met

Challenge: hey, is MIC50 for CN(C)c1ccc(O)c2c1C[C@H]1C[C@H]3[C@H](N(C)C)C(O)=C(C(N)=O)C(=O)[C@@]3(O)C(O)=C1C2=O [MINOCYCLINE] lower than 30 µg/mL or not?
Response given: Criterion met

Challenge: hey, is MIC50 for O=C(N[C@H](CO)[C@H](O)c1ccc([N+](=O)[O-])cc1)C(Cl)Cl [CHLORAMPHENICOL] lower than 30 µg/mL or not?
Response given: Criterion not met

Challenge: hey, is MIC50 for CCN1CCN(C(=O)N[C@@H](C(=O)N[C@@H]2C(=O)N3[C@@H]2SC(C)(C)[C@@H]3C(=O)O)c2ccccc2)C(=O)C1=O [PIPERACILLIN] lower than 30 µg/mL or not?
Response given: Criterion not met

Challenge: hey, is MIC50 for C[C@@H](O)[C@H]1C(=O)N2C(C(=O)O)=C(S[C@@H]3CN[C@H](C(=O)N(C)C)C3)[C@H](C)[C@H]12 [MEROPENEM] lower than 30 µg/mL or not?
Response given: Criterion met

Challenge: hey, is MIC50 for CC(C)(O/N=C(\C(=O)N[C@@H]1C(=O)N2C(C(=O)[O-])=C(C[n+]3ccccc3)CS[C@H]12)c1csc(N)n1)C(=O)O [CEFTAZIDIME] lower than 30 µg/mL or not?
Response given: Criterion not met

Origin of measurements: ChEMBL document CHEMBL1142070
